Provenance of the data: patent EP0096013A1

Assay: solubility in water
Type: physicochemical
Conditions: parts of water needed to dissolve the salt
value-kind: soluble in p. water (p.)
Just the number in p., nothing appended.

q: Recorded soluble in p. water of CCC(=O)O[C@H]1[C@H](O[C@@H]2[C@@H](C)[C@H](O[C@H]3C[C@@](C)(OC)[C@@H](O)[C@H](C)O3)[C@@H](C)C(=O)O[C@H](CC)[C@@](C)(O)[C@H](O)[C@@H](C)C(=O)[C@H](C)C[C@@]2(C)O)O[C@H](C)C[C@@H]1N(C)C [propionylerythromycin (-)-alpha-propionyl-glycinate] , please.
a: 60

q: Recorded soluble in p. water of CCC(=O)O[C@H]1[C@H](O[C@@H]2[C@@H](C)[C@H](O[C@H]3C[C@@](C)(OC)[C@@H](O)[C@H](C)O3)[C@@H](C)C(=O)O[C@H](CC)[C@@](C)(O)[C@H](O)[C@@H](C)C(=O)[C@H](C)C[C@@]2(C)O)O[C@H](C)C[C@@H]1N(C)C [Propionylerythromycin acetylsalicylate] , please.
a: 300

q: Recorded soluble in p. water of CC[C@H]1OC(=O)[C@H](C)[C@@H](O[C@H]2C[C@@](C)(OC)[C@@H](O)[C@H](C)O2)[C@H](C)[C@@H](O[C@@H]2O[C@H](C)C[C@H](N(C)C)[C@H]2O)[C@](C)(O)C[C@@H](C)C(=O)[C@H](C)[C@@H](O)[C@]1(C)O [Erythromycin acetylsalicylate] , please.
a: 100

q: Recorded soluble in p. water of CCC(=O)O[C@H]1[C@H](O[C@@H]2[C@@H](C)[C@H](O[C@H]3C[C@@](C)(OC)[C@@H](O)[C@H](C)O3)[C@@H](C)C(=O)O[C@H](CC)[C@@](C)(O)[C@H](O)[C@@H](C)C(=O)[C@H](C)C[C@@]2(C)O)O[C@H](C)C[C@@H]1N(C)C [Propionylerythromycin (+)-alpha-mercapto-propionyl-glycinate] , please.
a: 90
